- ASSAY TARGET: CXCR1p receptor-derived peptide (Homo sapiens), P25024
- RUN DESCRIPTION: SPR
- STATED CONDITIONS: modification not given
MEASURED ATTRIBUTE: Kd (µM)

BINDER: IKTYSKPFHPKFIK [CXCL8 peptide p_wt14 14-residue peptide, P10145]
MEASURED ATTRIBUTE: Kd
READOUT VALUE: 252
